# Test system: human APOE RNA
# Test method notes: Dose-dependent inhibition of human APOE RNA in HepG2 cells, electroporation, 50,000 cells per well, RT-PCR normalized to GAPDH (Example 4, Tables 8-10)
# Type: cell-based
# Setup conditions: HepG2 cells, electroporation, 24-hour treatment, 33 nM, Table 8
Strand notation (5' to 3'): a small letter for the sugar, then the base; units joined by * are phosphorothioate-linked, units joined directly phosphodiester-linked; [ ] holds rarer units or linkages, { } end groups; capitals alone tell only the bases. [ms] = mesyl phosphoramidate linkage; e = 2'-O-(2-methoxyethyl) (MOE); k = constrained ethyl (cEt); [5mC] = 5-methylcytosine; d = 2'-deoxy (DNA)
Overview of reported APOE RNA (% UTC) 33 nM across a group of substances:
Express your answer in % UTC, writing the number without its unit.

Here's what some known entries look like.
[
  {
    "Substance": "Aes^mCeoTeoTesGesGksTdsGdzAdzAdzTds^mCdsTdsTdsTdsAdzTksTksAesAe (eA*e[5mC]eTeT*eG*kG*dT*dG[ms]dA[ms]dA[ms]dT*d[5mC]*dT*dT*dT*dA[ms]kT*kT*eA*eA) [Compound No. 1757576]",
    "Numeric readout": 63
  },
  {
    "Substance": "1778127: modified oligonucleotide complementary to human APOE RNA (eA*e[5mC]eTeTkGkG*dT*dG[ms]dA[ms]dA*dT*d[5mC]*dT*dT*dT*dA[ms]kTeT[ms]eA[ms]eA; antisense) [compound 1778127]",
    "Numeric readout": 85
  },
  {
    "Substance": "1778131: modified oligonucleotide complementary to human APOE RNA (eA*e[5mC]eTeTeGkG*dT*dG[ms]dA[ms]dA*dT*d[5mC]*dT*dT*dT*dA[ms]kTkT*eA*eA; antisense) [compound 1778131]",
    "Numeric readout": 101
  },
  {
    "Substance": "1778111: modified oligonucleotide complementary to human APOE RNA (eA*e[5mC]eTeTeG*kG*dT*dG[ms]dA[ms]dA*dT*d[5mC]*dT*dT*dT*dA[ms]eTeT*eA*eA; antisense) [compound 1778111]",
    "Numeric readout": 73
  },
  {
    "Substance": "1785604: modified oligonucleotide complementary to human APOE RNA (k[5mC]*dT[ms]dT[ms]kG*dG[ms]kT*dG[ms]dA[ms]dA*dT*d[5mC]*dT*dT*dT*dA*dT*kT*kA*dA[ms]kA; antisense) [compound 1785604]",
    "Numeric readout": 89
  },
  {
    "Substance": "1778123: modified oligonucleotide complementary to human APOE RNA (eA*e[5mC]eTeTeG*eG*dT*dG[ms]dA[ms]dA*dT*d[5mC]*dT*dT*dT*dA[ms]kTkT*eA*eA; antisense) [compound 1778123]",
    "Numeric readout": 84
  },
  {
    "Substance": "1785598: modified oligonucleotide complementary to human APOE RNA (k[5mC]*kT*kT*dG[ms]dG[ms]dT[ms]dG[ms]dA[ms]dA[ms]dT*d[5mC]*dT*dT*dT*dA*dT[ms]kT*kA*dA[ms]kA; antisense) [compound 1785598]",
    "Numeric readout": 110
  }
]

Consider the additional substance presented here.
Enquiry: I'd like to know its APOE RNA (% UTC) 33 nM. The substance in question is ^mCksTksTksGdzGdzTdzGdzAdzAdzTds^mCdsTdsTdsTdsAdsTdsTksAksAdzAk (antisense k[5mC]*kT*kT*dG[ms]dG[ms]dT[ms]dG[ms]dA[ms]dA[ms]dT*d[5mC]*dT*dT*dT*dA*dT*kT*kA*dA[ms]kA) [Compound No. 1785602]
Return: 83

###

# System: human APOE RNA
# Test method notes: Dose-dependent inhibition of human APOE RNA in HepG2 cells, electroporation, 50,000 cells per well, RT-PCR normalized to GAPDH (Example 4, Tables 8-10)
# Type: cell-based
# Setup conditions: 5 nM; HepG2, electroporation, 16-hour treatment
Strand notation (5' to 3'): a small letter for the sugar, then the base; units joined by * are phosphorothioate-linked, units joined directly phosphodiester-linked; [ ] holds rarer units or linkages, { } end groups; capitals alone tell only the bases. e = 2'-O-(2-methoxyethyl) (MOE); k = constrained ethyl (cEt); [5mC] = 5-methylcytosine; d = 2'-deoxy (DNA)
Overview of reported APOE RNA (% UTC) across a group of substances:
Express your answer in % UTC, writing the number without its unit.

Here's what some known entries look like.
[
  {
    "Substance": "1757551: mixed MOE/cEt gapmer TTGGTGAATCTTTATTAA, sugar eeekkddddddddeeeee, linkages soossssssssssooss (eT*eTeGkG*kT*dG*dA*dA*dT*d[5mC]*dT*dT*dT*eAeTeT*eA*eA) [compound 1757551]",
    "Test target": "human APOE RNA",
    "Unit text": "% UTC",
    "APOE RNA (% UTC)": 91
  },
  {
    "Substance": "1757556: mixed MOE/cEt gapmer TTGGTGAATCTTTATTAA, sugar eeeeeddddddddekkee, linkages soossssssssssooss (eT*eTeGeG*eT*dG*dA*dA*dT*d[5mC]*dT*dT*dT*eAkTkT*eA*eA) [compound 1757556]",
    "Test target": "human APOE RNA",
    "Unit text": "% UTC",
    "APOE RNA (% UTC)": 92
  },
  {
    "Substance": "1757563: mixed MOE/cEt gapmer TTGGTGAATCTTTATTAA, sugar eeeekddddddddkekee, linkages soossssssssssooss (eT*eTeGeG*kT*dG*dA*dA*dT*d[5mC]*dT*dT*dT*kAeTkT*eA*eA) [compound 1757563]",
    "Test target": "human APOE RNA",
    "Unit text": "% UTC",
    "APOE RNA (% UTC)": 95
  }
]

Consider the additional substance presented here.
Enquiry: I'd like to know its APOE RNA (% UTC). The substance in question is 1757541: mixed MOE/cEt gapmer TTGGTGAATCTTTATTAA, sugar eeeekddddddddeeeee, linkages soossssssssssooss (eT*eTeGeG*kT*dG*dA*dA*dT*d[5mC]*dT*dT*dT*eAeTeT*eA*eA) [compound 1757541]
Return: 104

###

# Tested on: human APOE RNA
# Test method notes: Dose-dependent inhibition of human APOE RNA in differentiated SH-SY5Y cells, free uptake, 5 days (Example 5)
# Format: cell-based
# Setup conditions: 82 nM, 5 days (Table 13)
Strand notation (5' to 3'): a small letter for the sugar, then the base; units joined by * are phosphorothioate-linked, units joined directly phosphodiester-linked; [ ] holds rarer units or linkages, { } end groups; capitals alone tell only the bases. [ms] = mesyl phosphoramidate linkage; e = 2'-O-(2-methoxyethyl) (MOE); k = constrained ethyl (cEt); [5mC] = 5-methylcytosine; d = 2'-deoxy (DNA)
Measurement kind: APOE RNA (% UTC)
Express your answer in % UTC, writing the number without its unit.

Here's what some known entries look like.
[
  {
    "Substance": "Aks^mCeoTeoTesGesGksTdsGdzAdzAdzTds^mCdsTdsTdsTdsAdzTksTksAesAe (kA*e[5mC]eTeT*eG*kG*dT*dG[ms]dA[ms]dA[ms]dT*d[5mC]*dT*dT*dT*dA[ms]kT*kT*eA*eA) [Compound No. 1809635]",
    "APOE RNA (% UTC)": 43
  },
  {
    "Substance": "^mCksTksTksGdzGdzTdzGdzAdzAdzTds^mCdsTdsTdsTdsAdsTdsTksAksAdzAk (antisense k[5mC]*kT*kT*dG[ms]dG[ms]dT[ms]dG[ms]dA[ms]dA[ms]dT*d[5mC]*dT*dT*dT*dA*dT*kT*kA*dA[ms]kA) [Compound No. 1785602]",
    "APOE RNA (% UTC)": 49
  }
]

Enquiry: I'd like to know its APOE RNA (% UTC). The substance in question is Aes^mCeoTeoTesGesGksTdsGdzAdzAdzTds^mCdsTdsTdsTdsAdzTksTksAesAe (eA*e[5mC]eTeT*eG*kG*dT*dG[ms]dA[ms]dA[ms]dT*d[5mC]*dT*dT*dT*dA[ms]kT*kT*eA*eA) [Compound No. 1757576]
Return: 42

Enquiry: I'd like to know its APOE RNA (% UTC). The substance in question is TezTeoGeoGksTdsGdzAdzAdzTds^mCdsTdsTdsTdsAdzTksTksAesAesAes^mCe (antisense eT[ms]eTeGkG*dT*dG[ms]dA[ms]dA[ms]dT*d[5mC]*dT*dT*dT*dA[ms]kT*kT*eA*eA*eA*e[5mC]) [Compound No. 1809814]
Return: 63

Provenance of the data: patent US20250353873A1
